Entries and their inhibition
- target_desc: Leucine aminopeptidase (Plasmodium falciparum (isolate 3D7))
- assay_comment: P. falciparum M17LAP inhibitors, primary screen, biochemical, fluorogenic H-Leu-NHMec substrate, 1536-well (AID 1619);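 further: plate controls were full reaction with DMSO carrier for no effect and no enzyme background for full effect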
- experimental_parameters: recombinant M17LAP, H-Leu-NHMec fluorogenic kinetic assay; at 30 µM; hits give high values
Among all 220,000 compounds or so, about 830 (0.38%) were called active. Not all results are given here. Measured potencies and affinities stand elsewhere.
# value in %; strip the unit string

O=C(CCn1c(=O)oc2ccccc21)Nc1nccs1 :: 0.79
CCOCCCNC(=O)CCNC(=O)c1cc(OC)c(OC)c(OC)c1 :: 3.56
CCCOc1ccc(N2C(=O)CC(SCc3nc4ccccc4[nH]3)C2=O)cc1 (centres undefined) :: 9.24
COCc1cc(C)nc(SCC(=O)Nc2cccc(C)c2C)c1C#N :: 6.16
O=C1C2CC=C(Cl)CC2C(=O)N1CCc1ccccc1 (centres undefined) :: 51.8

Please give the measured inhibition for this compound: CCN(CC)c1ccc(NC(=O)CSc2nnc3nc(C)cc(C)n23)cc1
45.5

Query (compound): CCCNC(=O)C(=O)NCc1ccccn1 ; field requested: inhibition
-4.32

Return reported inhibition; argument: CCOC(=O)CCn1c(=S)n(CCC(=O)OCC)c2ccccc21
9.93

Need inhibition, item CCOc1ccc(N2C(=O)CC(SCC(=O)O)C2=O)cc1 (centres undefined)
11.6

Query (compound): O=C(CSc1nc(O)cc(=O)[nH]1)N1c2ccccc2Sc2ccccc21 ; field requested: inhibition
39.5

Endpoint output: inhibition of CCO/N=C(/C)c1c(O)c(C)c(-c2ccccc2)n(-c2ccccc2)c1=O . Value?
45.5

So what's the measured inhibition for this one? Cc1ccccc1C(=O)NCC(=O)NNC(=S)NC(=O)c1ccccc1C
63.2

Fill blank: measured inhibition of the compound O=C(CSc1nc(-c2ccc(Cl)cc2)[nH]c(=O)n1)Nc1cccc(Cl)c1 is ____.
-10.8

// query inhibition value for entry O=C(CSc1ccc(Cl)cc1)Nc1cccc(-c2nnc(-c3ccco3)o2)c1
6.07

Looking for the measured inhibition of Cc1nn(-c2ccc(Cl)c(Cl)c2Cl)c(=O)c2ccccc12 , can you help?
-4.32

Form field: reported inhibition of O=C1CC(CSc2ccc(Cl)cc2)=NN1
7.98

Given CCCOc1ccc(N2C(=O)CC(SCCc3nc4ccccc4[nH]3)C2=O)cc1 (centres undefined) , state its recorded inhibition.
0.77

GET /values?readout=inhibition&item= N#Cc1c(N)nc(-c2ccccc2)nc1-c1ccccc1
-4.62

Look up inhibition for this compound: Cc1nc(SCC(=O)N2c3ccccc3Sc3ccccc32)n[nH]1
17.3

* * *

- target_desc: Leucine aminopeptidase (Plasmodium falciparum (isolate 3D7))
- assay_comment: P. falciparum M17LAP inhibitors, primary screen, biochemical, fluorogenic H-Leu-NHMec substrate, 1536-well (AID 1619)
- experimental_parameters: recombinant M17LAP, H-Leu-NHMec fluorogenic kinetic assay; at 30 µM; hits give high values
About 830 (0.38%) of roughly 220,000 compounds were called active. The list is a sample of the results. Potency and affinity values are given separately.
readout_kind: inhibition (%)
All answers are understood in %, so give the number only.

In the examples that follow, each entry is paired with its recorded inhibition.
COc1cc(/C=N/NC(=S)Nc2cccc(C(=O)O)c2)cc(OC)c1OC :: 41
Cc1cccc(NC(=O)CN2C(=O)S/C(=C\c3ccc(-c4cccc(C(=O)O)c4C)o3)C2=O)c1 :: 4.08
COc1ccccc1N1C(=N)S/C(=C\c2ccc(-c3ccccc3C(=O)O)o2)C1=O :: 61.1
O=C(O)c1cccc(NC(=S)N/N=C/c2ccccn2)c1 :: 26.1

So what's the measured inhibition for this one? COc1ccc(/C=N/NC(=S)Nc2cccc(C(=O)O)c2)cc1OC
38.7

* * *

- target_desc: Leucine aminopeptidase (Plasmodium falciparum (isolate 3D7))
- assay_comment: P. falciparum M17LAP inhibitors, primary screen, biochemical, fluorogenic H-Leu-NHMec substrate, 1536-well (AID 1619);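 further: plate controls were full reaction with DMSO carrier for no effect and no enzyme background for full effect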
- experimental_parameters: recombinant M17LAP, H-Leu-NHMec fluorogenic kinetic assay; at 30 µM; hits give high values
Screen size: about 220,000 compounds; about 830 (0.38%) were called active. A selection follows. Results with a measured potency or affinity are listed apart.
Reported inhibition values for the following compounds.
Express your answer in %, writing the number without its unit.

Some solved cases for reference:
CN1CCN(C(=O)C2=C[C@@H](c3ccccc3)C[C@@H](OCCCCO)O2)CC1 :: 2.48
Cc1c(Cl)cccc1NC(=O)CSC(N)=O :: 3.23

Fill in the blank: the reported inhibition of Cc1c(NC(=O)C(C)Sc2ccccc2)c(=O)n(-c2ccccc2)n1C (stereo unspecified) is ____.
8.89

For Cc1ccc(C(=O)Nc2ccn(Cc3ccc(F)cc3)n2)o1 , what is its reported inhibition?
2

Quick one: inhibition of CCCCOC(=O)Nc1ccccc1C(=O)N1CCCC1 ?
10.4

Record request: inhibition value, item Cc1c(Cl)cccc1NC(=O)CSCC(N)=O
-1.74

* * *

- target_desc: Leucine aminopeptidase (Plasmodium falciparum (isolate 3D7))
- assay_comment: P. falciparum M17LAP inhibitors, primary screen, biochemical, fluorogenic H-Leu-NHMec substrate, 1536-well (AID 1619);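 further: plate controls were full reaction with DMSO carrier for no effect and no enzyme background for full effect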
- experimental_parameters: recombinant M17LAP, H-Leu-NHMec fluorogenic kinetic assay; at 30 µM; hits give high values
Out of some 220,000 compounds screened, about 830 (0.38%) were called active. A selection follows. Measured potencies and affinities stand elsewhere.
Class key for inhibition values: class 0 (below 10%), class 1 (10% to below 30%), class 2 (30% or more)

Recorded results for 5 compounds are shown here.
Cc1ccc(S(=O)(=O)n2nc(-c3ccco3)nc2N)cc1 :: class 0
C=CCn1c(SCC(=O)Nc2ccccc2OC)nc(O)c(CC)c1=O :: class 2
Cn1c(=O)c2c(nc(SCC(=O)Nc3ccccc3)n2C)n(C)c1=O :: class 0
Cc1ccc(-n2c(SCC(=O)Nc3ccc4c5c(cccc35)CC4)nc(O)c(C)c2=O)cc1 :: class 2
Cc1cccc(OCC(=O)Nc2ccc3c4c(cccc24)CC3)c1C :: class 0

Returns: class label. Input: Cn1ccnc1SCC(=O)Nc1cccc2ccccc12
class 1

Which of the defined bands does the recorded inhibition of C=CCn1c(N)cc(=O)nc1SCC(=O)Nc1ccccc1 sit within?
class 1

Band of Nc1cc(=O)nc(SCC(=O)Nc2cccc3ccccc23)n1CCc1ccccc1 ?
class 2

Kindly state the category for this compound: COc1ccccc1Nc1nc(-c2c(C)nc3ncccn23)cs1
class 1

For Nc1cc(=O)nc(SCC(=O)Nc2ccccc2)n1-c1ccccc1 , which inhibition bin applies?
class 1

Which of the defined bands does the recorded inhibition of Cc1ccc(S(=O)(=O)Oc2ccccc2/C=N/Nc2ccc(C(=O)O)cc2)cc1 sit within?
class 1

* * *

- target_desc: Leucine aminopeptidase (Plasmodium falciparum (isolate 3D7)) (UniProt Q8IL11)
- Sequence (Q8IL11 whole entry, looked up): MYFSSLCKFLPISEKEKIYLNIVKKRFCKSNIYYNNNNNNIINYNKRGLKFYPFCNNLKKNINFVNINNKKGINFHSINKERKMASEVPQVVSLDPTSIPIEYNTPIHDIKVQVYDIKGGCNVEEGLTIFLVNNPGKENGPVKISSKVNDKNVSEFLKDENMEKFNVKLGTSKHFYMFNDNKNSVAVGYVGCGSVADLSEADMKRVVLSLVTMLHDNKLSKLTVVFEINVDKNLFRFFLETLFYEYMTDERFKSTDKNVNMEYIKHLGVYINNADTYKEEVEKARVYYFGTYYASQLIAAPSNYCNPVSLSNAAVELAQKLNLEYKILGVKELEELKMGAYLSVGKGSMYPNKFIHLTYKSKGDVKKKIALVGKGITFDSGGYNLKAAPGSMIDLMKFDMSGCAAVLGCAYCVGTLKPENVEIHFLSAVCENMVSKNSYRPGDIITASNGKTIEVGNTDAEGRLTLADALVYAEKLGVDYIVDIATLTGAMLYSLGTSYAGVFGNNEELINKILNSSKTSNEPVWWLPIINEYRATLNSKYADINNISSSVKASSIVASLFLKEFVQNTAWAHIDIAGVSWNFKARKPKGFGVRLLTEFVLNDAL
- assay_comment: P. falciparum M17LAP inhibitors, primary screen, biochemical, fluorogenic H-Leu-NHMec substrate, 1536-well (AID 1619);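 further: plate controls were full reaction with DMSO carrier for no effect and no enzyme background for full effect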
- experimental_parameters: recombinant M17LAP, H-Leu-NHMec fluorogenic kinetic assay; at 30 µM; hits give high values
Out of some 220,000 compounds screened, about 830 (0.38%) were called active. The list is a sample of the results. Entries with a potency or affinity are not part of this list.
readout_kind: inhibition (%)
Unit % implied. Number only.

Reference set, count: 8
CCc1cccc(NC(=O)CCc2nc(-c3cccs3)no2)c1 :: 17.6
Cc1ccc(/C=N/Nc2cccc(C(=O)O)c2)s1 :: 53.6
O=c1cc(CSc2nnc(Nc3ccccc3)s2)nc2sccn12 :: 24.3
COCCOC(=O)C1=C(C)NC(=O)NC1/C=C/c1ccccc1 (centres undefined) :: 0.26
O=C(O)c1ccc(/C=N/Nc2cccc(C(F)(F)F)c2)cc1 :: 16.4
CN(C)S(=O)(=O)c1ccc(NC(=O)Cn2ccsc2=N)cc1 :: 0.8
CCCOC(=O)c1c(NC(=O)C2CCCO2)sc(C(=O)OC)c1C (centres undefined) :: 8.59
Cc1ccc(C(=O)O/N=C(\c2ccccc2)c2cccnc2)cc1 :: -5.37

I am curious: what inhibition value has been reported for COC1=C(OC)C(=O)C(CCCCCCCCCCO)=C(C)C1=O ?
-2.37

Could you share which inhibition value was measured for O=S(=O)(Nc1ccn(-c2ccccc2)n1)c1ccc(Br)cc1 ?
21.4

Which inhibition reading was recorded for the compound Cc1cc(C(F)(F)F)n2nc(-c3cnn(C)c3C(F)(F)F)c(Br)c2n1 ?
4.73

inhibition for Cc1ccc(/C=N/Nc2ccc(Cl)c(C(=O)O)c2)s1 ?
49.5

Which value of inhibition has been reported for CCOc1ccc(NC(=O)CSc2nc3c([nH]c4ccccc43)c(=O)n2C)cc1 in the records?
1.51

Please give the measured inhibition for this compound: CCc1ccc(NC(=O)N[C@H](C(=O)O)C(C)CC)cc1 (some centres undefined)
-1.8

Which inhibition reading was recorded for the compound Cc1ccc(C(=O)O)cc1NC(=O)C1CCCN1S(=O)(=O)c1cccc2nsnc12 (centres undefined) ?
-2.3

Which inhibition is listed for CCCCc1ccc(NC(=O)N[C@@H](C)C(=O)O)cc1 ?
-2.39

Item C=CCn1c(=O)c2ccccc2n2c(SCC(=O)Nc3sc(C(=O)N(CC)CC)c(C)c3C(=O)OCC)nnc12 has what recorded inhibition?
1.64

Which inhibition value is on record for C/C(=C\C(=O)c1ccccc1)Nc1ccc2c(c1)OCO2 ?
-1.02
